System: IL-1b
Assay: Human Monocyte IL-1b Assay (fresh human whole blood, LPS priming, ATP stimulation, ELISA)
Assay type: cell-based
Conditions: fresh human whole blood, 100 ng/mL LPS 3.5 hours, then 5 mM ATP 45 minutes, IL-1b in supernatant by ELISA, read-out: IL-1b (IC50)
pIC50: −log10 of the molar value.
Measured pIC50, listed per entry.

{"query smiles": "CN1CCC[C@@H](Nc2nnc(-c3ccc4c(c3O)CCC4)c3cccn23)C1", "pIC50": "5.52 to 6.52"}

Retrieve pIC50 measured for Cc1ccc(-c2nnc(N(C)[C@@H]3CCCN(C)C3)c3ccccc23)c(O)c1 and print it.
5.52 to 6.52

Name the recorded pIC50 of the item Cc1ccc(-c2nnc(N[C@@H]3CCCN(C)C3)n3cccc23)c(O)c1 in your answer.
> 6.52

Retrieve pIC50 measured for Cc1cc(C)c(-c2nnc(N[C@@H]3CCCN(C)C3)c3c2CCC3)c(O)c1 and print it.
> 6.52
